Assay: NCI Yeast Anticancer Drug Screen. Data for the mlh1 rad18 strain (AID 175)
Conditions: S. cerevisiae mlh1 rad18 strain growth inhibition; at 50.0 µM (retest, dose inferred, filed as 5.0); hits give high values
This is part of a sample that, as a whole, favours compounds with a hit. Of some 79,000 tested, about 15% had one in any assay.
Class 1: growth inhibition at least 60%. Class -1: growth inhibition below 60%.

Qu. Record CN(C)C(=O)OC1C(=O)N(C)c2ccc(Cl)cc2C2(c3ccccc3)N1C2(Cl)Cl (centres undefined) ; criterion: growth inhibition no lower than 60%. Met?
Ans. 1

Qu. Record COC1CC2C=C(C)/C=C/C=C/C(=O)NC(c3ccccc3)C/C=C/CCC(O)CC(=O)C2=C1O (centres undefined) ; criterion: growth inhibition no lower than 60%. Met?
Ans. 1

Qu. Record N#CCC[CH2][Sn]([Br])([Br])[c]1ccccc1 ; criterion: growth inhibition no lower than 60%. Met?
Ans. -1

Qu. Record C#CCN1C(=O)N(CC#C)C(=O)C(CC#C)(C(CC=C)c2ccccc2)C1=O (centres undefined) ; criterion: growth inhibition no lower than 60%. Met?
Ans. 1

Qu. Record CN(C)C(=S)Nc1nnc(NC23CC4CC(CC(C4)C2)C3)s1 ; criterion: growth inhibition no lower than 60%. Met?
Ans. -1

Qu. Record CC(=O)[O-].CC(=O)[O-].O=C(N/N=C/c1cc(Cl)cc(Cl)c1[OH2+])c1ccncc1.[Co+2] ; criterion: growth inhibition no lower than 60%. Met?
Ans. -1

Qu. Record O=[N+]([O-])O.[In] ; criterion: growth inhibition no lower than 60%. Met?
Ans. -1

Qu. Record CC(=O)[O-].CC(=O)[O-].O=C(N/N=C/c1cc(Cl)cc(Cl)c1[OH2+])c1ccncc1.[Zn+2] ; criterion: growth inhibition no lower than 60%. Met?
Ans. -1

Qu. Record O=C([CH-]C(=O)c1ccccc1)c1ccccc1.O=C([CH-]C(=O)c1ccccc1)c1ccccc1.O=C([CH-]C(=O)c1ccccc1)c1ccccc1.[Cl-].[Hf+4] ; criterion: growth inhibition no lower than 60%. Met?
Ans. 1

###

Experiment: NCI Yeast Anticancer Drug Screen. Data for the mec2-1 strain (AID 157)
Settings: S. cerevisiae mec2-1 strain, at 5.0 µM (retest, dose inferred, filed as 0.5), hits give high values
Procedure: Growth inhibition of yeast strains with defined genetic alterations is measured as a screen for potential anti-cancer activity. Selected strains with alterations in DNA damage repair or cell cycle control were exposed to compounds and growth inhibition was measured relative to vehicle treated controls. The strain used in this assay is mec2-1
About 79,000 compounds went through this panel and 15% of them were active in at least one assay; those are over-represented in the sample as a whole. Activity calls are given as the source filed them. Cut-off read from the data, not from the text of the source: active = growth inhibition above about 70%; inactive = the rest.
I'd be grateful if you could share measured growth inhibition for these entries.

Qu. Query: growth inhibition; subject: [Cl][Sn]([Cl])([c]1ccccc1)[c]1ccccc1.c1ccc2nc(-c3ccc4ccccc4n3)ccc2c1
Ans. 16% (inactive)

Qu. Query: growth inhibition; subject: [N-]=[N+]=Nc1c([N+](=O)[O-])c(=O)n2c3c(cccc13)CCC2
Ans. 26% (inactive)

Qu. Query: growth inhibition; subject: S=C=[N][Sn]([N]=C=S)([c]1ccccc1)[c]1ccccc1.c1ccc2nc(-c3ccc4ccccc4n3)ccc2c1
Ans. 65% (inactive)

Qu. Query: growth inhibition; subject: CCC[CH2][Sn]1([CH2]CCC)[O]C2C(O)OC(CO)C(O)C2[O]1 (stereo not given)
Ans. 74% (active)

Qu. Query: growth inhibition; subject: CCCCCCCCCCC(=O)O.[Pb]
Ans. -10% (inactive)

Qu. Query: growth inhibition; subject: [Cl-].[Cl-].[Cl-].[O-]c1cccc2cccnc12.[O-]c1cccc2cccnc12.[O]=[Mo]
Ans. 73% (active)

Qu. Query: growth inhibition; subject: Nc1cc2[nH]cnc2c([Se])n1
Ans. -39% (inactive)

Qu. Query: growth inhibition; subject: CCC[CH2][Sn-]([CH2]CCC)([CH2]CCC)[O]c1cc(Cl)c(Cl)cc1Cl
Ans. 100% (active)

Qu. Query: growth inhibition; subject: O=C(N/N=C(/CCN1CCCC1)CC(c1ccccc1)c1c(O)c2ccccc2oc1=O)c1ccncc1 (stereo not given)
Ans. -4% (inactive)

Qu. Query: growth inhibition; subject: C1=CC2CCC[N-]C2N1.C1=CC2CCC[N-]C2N1.[I][Pt+2][I] (stereo not given)
Ans. 9% (inactive)
